method: chemical genetic growth profiling, strain panel (AID 1159580);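 further: tested at 20 µM; growth read once vehicle control cultures reached saturation at 30 °C; 1 = growth at the plate median or of vehicle wells; lower values mean less growth of the strain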
protocolConditions: S. cerevisiae deletion strains, growth OD, locus YGR135W, strain pre9, stronger effect = lower value
The campaign covered roughly 5,500 compounds. About 2,000 (36%) were called active. Another 18% or so got no clear call; they are omitted. The list shows a part of the results.

{"columns": ["compound", "normalized growth"],
 "data": [
  ["CC(C)(C#N)O[C@@H]1O[C@H](CO)[C@@H](O)[C@H](O)[C@H]1O", 0.975],
  ["CCC(C)C(NC)C(=O)O (stereo unspecified)", 0.99],
  ["Nc1c2c(nc3ccccc13)CCCC2O (stereo unspecified)", 0.979],
  ["Clc1ccccc1C(c1ccccc1)(c1ccccc1)n1ccnc1", 0.0631],
  ["CCCOc1ccccc1-c1nc2n[nH]nc2c(=O)[nH]1", 1.01],
  ["COc1cc(N)c(Cl)cc1C(=O)NC1CCN(Cc2ccccc2)CC1", 0.998],
  ["C/C=C1\\[C@H]2C=C(C)C[C@]1(N)c1ccc(=O)[nH]c1C2", 1],
  ["Nc1c2c(nc3ccccc13)CCCC2", 0.987],
  ["Fc1ccc(C(c2ccccc2)(c2ccccc2F)n2ccnc2)cc1 (stereo unspecified)", 0.0937],
  ["COC(=O)Nc1nc2ccc(Sc3ccccc3)cc2[nH]1", 0.99],
  ["NC12CC3CC(CC(C3)C1)C2", 1.01],
  ["CC(=O)NC(C(=O)O)C(C)(C)SN=O (stereo unspecified)", 1],
  ["COc1ccc2c(c1)c(CC(=O)O)c(C)n2C(=O)c1ccc(Cl)cc1", 0.963],
  ["Nc1ccc(S(=O)(=O)c2ccc(N)cc2)cc1", 1.01],
  ["Cc1cc(C(C)(C)C)c(O)c(C(C)(C)C)c1", 0.928],
  ["N#CC(O[C@@H]1O[C@H](CO[C@@H]2O[C@H](CO)[C@@H](O)[C@H](O)[C@H]2O)[C@@H](O)[C@H](O)[C@H]1O)c1ccccc1 (stereo partly specified)", 0.985]
]}

###

method: chemical genetic growth profiling, strain panel (AID 1159580)
protocolConditions: S. cerevisiae deletion strains, growth OD, locus YJR043C, strain POL32
The campaign covered roughly 5,500 compounds. About 2,000 (36%) were called active. Roughly 18% stayed inconclusive and do not appear here. Rule as the data show it: active = normalized growth mostly below about 0.91 (no sharp cut-off); inconclusive = no clear call, values can overlap the other calls; inactive = mostly above about 0.92. The list shows a part of the results.
Labels: active, inactive

{"columns": ["molecule", "categoryLabel"],
 "data": [
  ["Cc1nc(-c2nnc(Sc3ccc(C(F)(F)F)cc3[N+](=O)[O-])n2C)cs1", "inactive"],
  ["O=S(=O)(CCN1CCOCC1)c1ccc(Cl)cc1", "inactive"],
  ["CCOC(=O)c1ccc2[nH]c(-c3ccccc3)cc(=O)c2c1", "inactive"],
  ["CC(C)(Oc1ccc(CCNC(=O)c2ccc(Cl)cc2)cc1)C(=O)O", "inactive"],
  ["CCc1cc2c(cc1C(=O)CC1(O)C(=O)Nc3ccc(Br)cc31)C(C)(C)CCC2(C)C (stereo not drawn)", "inactive"],
  ["COC(=O)C[C@H]1C(C)(C)C2(O)OC34CC2C(=O)[C@]1(C)C3CC[C@]1(C)C4=CC(=O)O[C@H]1c1ccoc1 (stereo partly drawn)", "inactive"],
  ["O=C(COc1ccc2c(c1)OCO2)N1CCN(c2ncc(C(F)(F)F)cc2Cl)CC1", "inactive"],
  ["Cn1c(CSCC(=O)Nc2ccccc2)n[nH]c1=S", "inactive"],
  ["O=C(CSCc1c(F)cccc1Cl)NC1Cc2ccccc2C1", "inactive"],
  ["COc1ccccc1C1OC(=O)CC1C(=O)O (stereo not drawn)", "inactive"],
  ["O=C1c2c(O)cccc2Cc2cccc(O)c21", "inactive"],
  ["CC(C)=CCCC1(C)C=Cc2c(O)c3c(c(CC=C(C)C)c2O1)OC12C(=CC4CC1C(C)(C)OC2(C/C=C(/C)C(=O)O)C4O)C3=O (stereo not drawn)", "inactive"],
  ["Cc1cn([C@H]2C[C@H](N=[N+]=[N-])[C@@H](CO)O2)c(=O)[nH]c1=O", "inactive"],
  ["CCCCCc1ccc(C(=O)O/N=C\\c2c(Cl)cccc2Cl)cc1", "inactive"],
  ["O=C(COc1ccc(Cl)cc1)N1CCN(Cc2ccc3c(c2)OCO3)CC1", "inactive"],
  ["O=C(NC1Cc2ccccc2C1)c1cncc(Br)c1", "inactive"],
  ["N#C/C(NCc1cccs1)=C(\\C#N)NCc1c(F)cccc1Cl", "inactive"],
  ["CCOC(=O)c1sc(-c2ccc(C)cc2)nc1O", "active"]
]}

###

method: chemical genetic growth profiling, strain panel (AID 1159580);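 further: tested at 20 µM; growth read once vehicle control cultures reached saturation at 30 °C; 1 = growth at the plate median or of vehicle wells; lower values mean less growth of the strain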
protocolConditions: S. cerevisiae deletion strains, growth OD, locus YOR106W, strain vam3, stronger effect = lower value
Hit rate of the full screen: of about 5,500 compounds, about 2,000 (36%) were called active. Roughly 18% stayed inconclusive and do not appear here. This is one part of the list.
Recorded normalized growth by entry
readoutLabel: normalized growth

{"columns": ["molecule", "result"],
 "data": [
  ["C/C=C(/C)C(=O)O[C@@H]1[C@H](OC(C)=O)[C@@]2(CO)C(CC1(C)C)C1=CCC3[C@@]4(C)CC[C@H](O[C@@H]5O[C@H](C(=O)O)[C@@H](O[C@@H]6O[C@H](CO)[C@@H](O)[C@H](O)[C@H]6O)[C@H](O)[C@H]5O[C@@H]5O[C@H](CO)[C@@H](O)[C@H](O)[C@H]5O)[C@](C)(CO)C4CC[C@@]3(C)[C@]1(C)C[C@H]2O (stereo partly drawn)", "1.01 (inactive)"],
  ["COc1cc(C(=O)O[C@H]2CC[C@@]3(C)[C@@H]4CC[C@H]5[C@]6(O)C[C@H](O)[C@@]7(O)[C@@H](CN8C[C@@H](C)CC[C@H]8[C@@]7(C)O)[C@]6(O)C[C@@]53O[C@]24O)cc(OC)c1OC", "0.999 (inactive)"],
  ["CC1(C)CCC2(C(=O)O)CCC3(C)C(=CCC4C5(C)CCC(O)C(C)(C)C5C(O)CC43C)C2C1 (stereo not drawn)", "0.901 (inactive)"]
]}

###

method: chemical genetic growth profiling, strain panel (AID 1159580);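 further: tested at 20 µM; growth read once vehicle control cultures reached saturation at 30 °C; 1 = growth at the plate median or of vehicle wells; lower values mean less growth of the strain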
protocolConditions: S. cerevisiae deletion strains, growth OD, locus YLR262C, strain YPT6, stronger effect = lower value
The campaign covered roughly 5,500 compounds. About 2,000 (36%) were called active. About 18% were inconclusive and are not listed. The list shows a part of the results. Where a SMILES comes first, the peptide text is derived from it. The star is where a group is joined. For = O=C*
Field: label. Allowed values: satisfied (normalized growth < 1) or not satisfied (normalized growth >= 1).

{"columns": ["compound", "categoryLabel"],
 "data": [
  ["Clc1ccccc1C(c1ccccc1)(c1ccccc1)n1ccnc1", "satisfied"],
  ["FC(F)(F)c1cccc(CSc2n[nH]c(=S)s2)c1", "satisfied"],
  ["c1cc2c(cc1N=C1SCC3CCCCN13)OCO2 (stereo unspecified)", "not satisfied"],
  ["CSCCC(NC=O)C(=O)NC(Cc1ccccc1)C(=O)O (stereo not drawn) (For-Met-Phe-OH; configuration not given here)", "not satisfied"],
  ["CC(=O)Nc1ccc(OCC(O)CNC(C)C)cc1 (stereo unspecified)", "not satisfied"],
  ["O=c1[nH]cc(F)c(=O)[nH]1", "satisfied"],
  ["NC12CC3CC(CC(C3)C1)C2", "not satisfied"],
  ["Fc1ccc(C(c2ccccc2)(c2ccccc2F)n2ccnc2)cc1 (stereo unspecified)", "satisfied"],
  ["O=C(Nc1ccc(Br)cc1Cl)C(Cl)(Cl)Cl", "satisfied"],
  ["CCCCCc1ccc(C(=O)O/N=C\\c2c(Cl)cccc2Cl)cc1", "satisfied"],
  ["CC(C)(C#N)O[C@@H]1O[C@H](CO)[C@@H](O)[C@H](O)[C@H]1O", "not satisfied"],
  ["O=C1C(O)=C(O)C(=O)C(O)=C1O", "satisfied"],
  ["COC1=C[C@@H]2[C@@H]3Cc4ccc(OC)c(O)c4[C@]2(CCN3C)CC1=O", "satisfied"],
  ["CC1(C)CC[C@]2(C(=O)O)CC[C@]3(C)C(=CCC4[C@@]5(C)CC[C@H](O)[C@@](C)(CO)C5CC[C@]43C)C2C1 (stereo partly specified)", "not satisfied"],
  ["CSC(=CC(=O)c1ccc(Cl)cc1)SC", "satisfied"]
]}

###

method: chemical genetic growth profiling, strain panel (AID 1159580);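 further: tested at 20 µM; growth read once vehicle control cultures reached saturation at 30 °C; 1 = growth at the plate median or of vehicle wells; lower values mean less growth of the strain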
protocolConditions: S. cerevisiae deletion strains, growth OD, locus YER155C, strain BEM2 (second series)
Out of some 5,500 compounds screened, about 2,000 (36%) were called active. Another 18% or so got no clear call; they are omitted. Rule as the data show it: active = normalized growth mostly below about 0.91 (no sharp cut-off); inconclusive = no clear call, values can overlap the other calls; inactive = mostly above about 0.92. The list shows a part of the results.
Classes used: TRUE (active), FALSE (inactive)

{"columns": ["molecule", "categoryLabel"],
 "data": [
  ["CCCCCCCCCCCC[C@H](C(=O)O)[C@@H](C)C(=O)O", "FALSE"],
  ["C[C@@H]1CC[C@H]2[C@@H](C)C(=O)O[C@@H]3O[C@@]4(C)CC[C@@H]1[C@]32OO4", "TRUE"],
  ["Nc1ccc(S(=O)(=O)Nc2ccnn2-c2ccccc2)cc1", "FALSE"],
  ["Cc1cc(O)cc(C)c1Cl", "TRUE"],
  ["NC(Cc1c[nH]c2ccccc12)C(=O)O (stereo not given)", "FALSE"],
  ["CCCCCCCCCCCCCCC(C(=O)O)C(O)(CC(=O)OC)C(=O)O (stereo not given)", "FALSE"],
  ["Cc1ccnc(NS(=O)(=O)c2ccc(N)cc2)n1", "FALSE"],
  ["N=C(N)SCCN", "FALSE"],
  ["COC(=O)Nc1nc2ccc(C(=O)c3ccccc3)cc2[nH]1", "FALSE"],
  ["CC(C)=CCCC1(C)C=Cc2c(O)c3c(c(CC=C(C)C)c2O1)OC12C(=CC4CC1C(C)(C)OC2(C/C=C(/C)C(=O)O)C4=O)C3=O (stereo not given)", "TRUE"]
]}

Source: PubChem BioAssay AID1159580
